Would you kindly list Dmax at 1 µM for each of these molecules?
Target: AKT2 (Homo sapiens, UniProt P31751)
Construct: AKT1, AKT2, and AKT3 proteins in H1975-OR cells; endogenous in cells; host or cells: H1975-OR (osimertinib-resistant H1975)
Sequence (P31751 whole entry): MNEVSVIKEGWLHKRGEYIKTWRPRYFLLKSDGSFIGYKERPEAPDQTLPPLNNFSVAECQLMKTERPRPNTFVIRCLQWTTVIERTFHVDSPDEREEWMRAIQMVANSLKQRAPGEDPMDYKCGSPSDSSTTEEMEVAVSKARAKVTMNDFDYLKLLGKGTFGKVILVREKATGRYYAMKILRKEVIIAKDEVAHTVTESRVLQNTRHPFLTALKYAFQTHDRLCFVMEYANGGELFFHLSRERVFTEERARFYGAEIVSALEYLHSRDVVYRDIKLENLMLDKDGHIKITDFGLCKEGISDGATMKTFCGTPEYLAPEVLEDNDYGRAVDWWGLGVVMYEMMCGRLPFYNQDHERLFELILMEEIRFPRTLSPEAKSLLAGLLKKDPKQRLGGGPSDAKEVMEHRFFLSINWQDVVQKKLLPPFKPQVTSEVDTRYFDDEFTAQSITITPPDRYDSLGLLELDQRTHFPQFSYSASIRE
Assay: Western Blot, degradation of AKT2 protein in H1975-OR cells
Format: cell-based
Conditions: 1000 nM, 24 hours, maximum degradation rate
Answers are plain numbers, in %.

INSERT INTO results (smiles_text, study_system, units_of_measure, value) VALUES
  ('CCC(=O)Nc1cccc(-n2c(=O)cc(C)c3cnc(Nc4ccc(N5CCN(CCCCCCCCNC(=O)CC67CC8CC(CC(C8)C6)C7)CC5)cc4OC)nc32)c1', 'AKT2 (Homo sapiens, UniProt P31751)', '%', 26.1),
  ('COc1cc(N2CCN(CCCCCCCCN)CC2)ccc1Nc1ncc2c(C)cc(=O)n(-c3cccc(NC(=O)C4CC4)c3)c2n1', 'AKT2 (Homo sapiens, UniProt P31751)', '%', 30.6),
  ('COc1cc(N2CCN(CCCCCCCCNC(=O)[C@@]34CC5C[C@@](C)(C[C@@](C)(C5)C3)C4)CC2)ccc1Nc1ncc2c(C)cc(=O)n(-c3cccc(NC(=O)C4CC4)c3)c2n1', 'AKT2 (Homo sapiens, UniProt P31751)', '%', 24.3),
  ('C=CC(=O)Nc1cccc(-n2c(=O)cc(C)c3cnc(Nc4ccc(N5CCN(CCOCCOCCNC(=O)CC67CC8CC(CC(C8)C6)C7)CC5)cc4OC)nc32)c1', 'AKT2 (Homo sapiens, UniProt P31751)', '%', 27.2);

For each entry beneath this line, provide reported Dmax at 1 µM.
1. COc1cc(N2CCN(CCCCCCCCNC(=O)CC34CC5CC(CC(C5)C3)C4)CC2)ccc1Nc1ncc2c(C)cc(=O)n(-c3cccc(NC(=O)C(C)(C)C)c3)c2n1
2. COc1cc(N2CCN(CCCCCCCCNC(=O)C34CC5CC(CC(C5)C3)C4)CC2)ccc1Nc1ncc2c(C)cc(=O)n(-c3cccc(NC(=O)C4CC4)c3)c2n1
3. COc1cc(N2CCN(CCCCCCCCCCCCNC(=O)CC34CC5CC(CC(C5)C3)C4)CC2)ccc1Nc1ncc2c(C)cc(=O)n(C3CCCC3)c2n1
4. CCc1cccc(-n2c(=O)cc(C)c3cnc(Nc4ccc(N5CCN(CCCCCCCCCCCCNC(=O)CC67CC8CC(CC(C8)C6)C7)CC5)cc4OC)nc32)c1
5. COc1cc(N2CCN(CCCCCCCCCCCCNC(=O)CC34CC5CC(CC(C5)C3)C4)CC2)ccc1Nc1ncc2c(C)cc(=O)n(-c3cccc(NCC4CC4)c3)c2n1

1: 34.2; 2: 39.1; 3: 0; 4: 31.4; 5: 0

For each entry beneath this line, provide reported Dmax at 1 µM.
1. COc1cc(N2CCN(CCCCCCCCCCCCNC(=O)CC34CC5CC(CC(C5)C3)C4)CC2)ccc1Nc1ncc2c(C)cc(=O)n(-c3cccc(NC4CCN(C)CC4)c3)c2n1
2. COc1cc(N2CCN(CCCCCCCCCCCCNC(=O)CC34CC5CC(CC(C5)C3)C4)CC2)ccc1Nc1ncc2c(C)cc(=O)n([C@H]3CCN(C(=O)C4CC4)C3)c2n1

[0, 0]

---

Target: UniProt:Q9Y243
Sequence (Q9Y243 whole entry): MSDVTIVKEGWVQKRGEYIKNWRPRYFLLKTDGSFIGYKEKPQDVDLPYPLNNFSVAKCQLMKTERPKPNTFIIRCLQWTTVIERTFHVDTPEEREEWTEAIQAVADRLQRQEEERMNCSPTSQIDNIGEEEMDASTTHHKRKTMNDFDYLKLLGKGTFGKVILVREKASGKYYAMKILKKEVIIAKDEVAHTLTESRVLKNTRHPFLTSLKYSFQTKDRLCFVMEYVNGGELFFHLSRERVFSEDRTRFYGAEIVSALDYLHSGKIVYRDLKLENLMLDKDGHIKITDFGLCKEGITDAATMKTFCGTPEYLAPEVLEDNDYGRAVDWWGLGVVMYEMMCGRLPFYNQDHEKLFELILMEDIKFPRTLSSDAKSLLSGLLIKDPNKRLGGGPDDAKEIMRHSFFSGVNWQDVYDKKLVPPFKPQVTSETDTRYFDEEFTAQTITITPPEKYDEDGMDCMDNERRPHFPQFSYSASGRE
Assay: Western Blot, degradation of AKT3 protein in H1975-OR cells
Assay type: cell-based
Design: endogenous in cells; host or cells: H1975-OR (osimertinib-resistant H1975)
Conditions: 1000 nM, 24 hours, maximum degradation rate
Would you kindly list Dmax at 1 µM for each of these compounds?

Solved cases (6 shown):
INSERT INTO results (smiles_text, quantity_measured, value) VALUES
  ('CCc1cccc(-n2c(=O)cc(C)c3cnc(Nc4ccc(N5CCN(CCCCCCCCCCCCNC(=O)CC67CC8CC(CC(C8)C6)C7)CC5)cc4OC)nc32)c1', 'Dmax at 1 µM', '70.3%'),
  ('COc1cc(N2CCN(CCCCCCCCCCCCNC(=O)CC34CC5CC(CC(C5)C3)C4)CC2)ccc1Nc1ncc2c(C)cc(=O)n(-c3cccc(NC(=O)C(C)C)c3)c2n1', 'Dmax at 1 µM', '57.1%'),
  ('COc1cc(N2CCN(CCCCCCCCCCCCNC(=O)CC34CC5CC(CC(C5)C3)C4)CC2)ccc1Nc1ncc2c(C)cc(=O)n(-c3cccc(NC4CCN(C)CC4)c3)c2n1', 'Dmax at 1 µM', '30.6%'),
  ('COc1cc(N2CCN(CCCCCCCCCCCCNC(=O)CC34CC5CC(CC(C5)C3)C4)CC2)ccc1Nc1ncc2c(C)cc(=O)n(-c3cccc(NC4CNC4)c3)c2n1', 'Dmax at 1 µM', '29.1%'),
  ('COc1cc(N2CCN(CCCCCCCCCCCCNC(=O)CC34CC5CC(CC(C5)C3)C4)CC2)ccc1Nc1ncc2c(C)cc(=O)n([C@H]3CCCN(C(=O)C4CC4)C3)c2n1', 'Dmax at 1 µM', '25%'),
  ('COc1cc(N2CCN(CCCCCCCCNC(=O)C[C@]34CC5C[C@@](C)(C[C@@](C)(C5)C3)C4)CC2)ccc1Nc1ncc2c(C)cc(=O)n(-c3cccc(NC(=O)C4CC4)c3)c2n1', 'Dmax at 1 µM', '38.9%');

Dear colleague, I am looking for the recorded Dmax at 1 µM of the following compound: C=CC(=O)Nc1cccc(-n2c(=O)cc(C)c3cnc(Nc4ccc(N5CCN(CCCCCCCCCCCCCCNC(=O)CC67CC8CC(CC(C8)C6)C7)CC5)cc4OC)nc32)c1
62.9%

---

Test system: A431
Test: CCK-8 tumor cell proliferation, A431
Assay type: cell-based
Conditions: Homo sapiens, A-431, A431 cells, 72 hours
Quantity Measured: IC50 (µM)
One number for each entry, in µM.

Solved cases (5 shown):
INSERT INTO results (smiles_text, value) VALUES
  ('COc1cc(N2CCN(CCCCCCCCCCCCNC(=O)CC34CC5CC(CC(C5)C3)C4)CC2)ccc1Nc1ncc2c(C)cc(=O)n(-c3cccc(NC(=O)C(C)C)c3)c2n1', 0.0517),
  ('C=CC(=O)Nc1cccc(-n2c(=O)cc(C)c3cnc(Nc4ccc(N5CCN(CCCCCCNC(=O)CC67CC8CC(CC(C8)C6)C7)CC5)cc4OC)nc32)c1', 0.102),
  ('C=CC(=O)Nc1cccc(-n2c(=O)cc(C)c3cnc(Nc4ccc(N5CCN(CCCCCCCCCCNC(=O)CC67CC8CC(CC(C8)C6)C7)CC5)cc4OC)nc32)c1', 0.0102),
  ('COc1cc(N2CCN(CCCCCCCCCCCCNC(=O)CC34CC5CC(CC(C5)C3)C4)CC2)ccc1Nc1ncc2c(C)cc(=O)n(-c3cccc(NC(C)=O)c3)c2n1', 0.0106),
  ('COc1cc(N2CCN(CCCCCCCCCCCCNC(=O)CC34CC5CC(CC(C5)C3)C4)CC2)ccc1Nc1ncc2c(C)cc(=O)n(-c3cccc(NC(=O)C(C)(C)C)c3)c2n1', 0.155);

For each entry beneath this line, provide reported IC50.
1. CCC(=O)Nc1cccc(-n2c(=O)cc(C)c3cnc(Nc4ccc(N5CCN(CCCCCCCCCCCCNC(=O)CC67CC8CC(CC(C8)C6)C7)CC5)cc4OC)nc32)c1
2. C=CC(=O)Nc1cccc(-n2c(=O)cc(C)c3cnc(Nc4ccc(N5CCN(CCCCCCCCCCCCCCNC(=O)CC67CC8CC(CC(C8)C6)C7)CC5)cc4OC)nc32)c1

1: 0.00986; 2: 0.26

For each entry beneath this line, provide reported IC50.
1. COc1cc(N2CCN(CCCCCCCCCCCCNC(=O)CC34CC5CC(CC(C5)C3)C4)CC2)ccc1Nc1ncc2c(C)cc(=O)n([C@H]3CC[C@@H](NC(=O)C4CC4)C3)c2n1
2. C=CC(=O)Nc1cccc(-n2c(=O)cc(C)c3cnc(Nc4ccc(N5CCN(CCOCCOCCNC(=O)CC67CC8CC(CC(C8)C6)C7)CC5)cc4OC)nc32)c1
3. C=CC(=O)Nc1cccc(-n2c(=O)cc(C)c3cnc(Nc4ccc(N5CCN(CCCCCCCCNC(=O)CC67CC8CC(CC(C8)C6)C7)CC5)cc4OC)nc32)c1

1: 0.106; 2: 0.541; 3: 0.0299

---

Tested on: H1975OR
Assay: CCK-8 tumor cell proliferation, H1975OR
Type: cell-based
Settings: H1975OR cells (Osimertinib resistant), 72 hours
Would you kindly list IC50 for each of these molecules?
Answers are plain numbers, in µM.

Solved cases (2 shown):
INSERT INTO assay_data (smiles_text, value) VALUES
  ('C=CC(=O)Nc1cccc(-n2c(=O)cc(C)c3cnc(Nc4ccc(N5CCN(CCCCCCCCCCCCNC(=O)CC67CC8CC(CC(C8)C6)C7)CC5)cc4OC)nc32)c1', 0.009),
  ('C=CC(=O)Nc1cccc(-n2c(=O)cc(C)c3cnc(Nc4ccc(N5CCN(C(=O)CCCCCCCCCCCNC(=O)CC67CC8CC(CC(C8)C6)C7)CC5)cc4OC)nc32)c1', 0.417);

Dear colleague, I am looking for the recorded IC50 of the following molecule: COc1cc(N2CCN(CCCCCCCCNC(=O)C[C@]34CC5C[C@@](C)(C[C@@](C)(C5)C3)C4)CC2)ccc1Nc1ncc2c(C)cc(=O)n(-c3cccc(NC(=O)C4CC4)c3)c2n1
0.0939
